This listing pairs compounds with measured inhibition at 1 µM.
Biological target: Muscarinic M5 (Homo sapiens, UniProt P08912)
Construct: host or cells: CHO-K1
Sequence (P08912 1-532): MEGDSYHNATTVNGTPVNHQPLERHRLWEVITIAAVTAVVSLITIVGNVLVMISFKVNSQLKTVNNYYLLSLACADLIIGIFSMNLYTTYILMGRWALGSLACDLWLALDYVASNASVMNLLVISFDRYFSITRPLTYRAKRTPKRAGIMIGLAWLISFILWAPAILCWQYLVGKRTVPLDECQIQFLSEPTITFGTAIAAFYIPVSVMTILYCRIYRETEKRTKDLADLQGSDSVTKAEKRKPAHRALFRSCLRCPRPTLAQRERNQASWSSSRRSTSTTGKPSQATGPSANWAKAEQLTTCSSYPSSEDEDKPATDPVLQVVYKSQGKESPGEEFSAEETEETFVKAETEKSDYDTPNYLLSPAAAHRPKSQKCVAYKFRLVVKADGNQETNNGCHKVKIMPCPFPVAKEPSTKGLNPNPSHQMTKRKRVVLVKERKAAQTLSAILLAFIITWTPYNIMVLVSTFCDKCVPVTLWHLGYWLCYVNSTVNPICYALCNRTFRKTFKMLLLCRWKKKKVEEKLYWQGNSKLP
Test: Radioligand displacement binding assay, [3H]N-methylscopolamine, M5
Conditions: 1 μM
Report the figure in % without appending any unit label.

Solved cases below.
[
  {
    "COMPOUND": "CC[C@@H](O)C(C[C@@H](C)NC)(c1ccccc1)c1ccccc1",
    "VALUE_UNITS": "%",
    "inhibition at 1 µM": 15
  },
  {
    "COMPOUND": "CC[C@H](O)C(C[C@H](C)NC)(c1ccccc1)c1ccccc1",
    "VALUE_UNITS": "%",
    "inhibition at 1 µM": 2
  },
  {
    "COMPOUND": "CC[C@@H](O)C(C[C@H](C)N)(c1ccccc1)c1ccccc1",
    "VALUE_UNITS": "%",
    "inhibition at 1 µM": 9
  }
]

Req: Look up and report measured inhibition at 1 µM (Muscarinic M5 (Homo sapiens, UniProt P08912)) for the following compound: "CC[C@H](O)C(C[C@H](C)N)(c1ccccc1)c1ccccc1"
Resp: 1

Req: Look up and report measured inhibition at 1 µM (Muscarinic M5 (Homo sapiens, UniProt P08912)) for the following compound: CCC1=N[C@H](C)CC1(c1ccccc1)c1ccccc1 [(R)-EMDP]
Resp: 6

Req: Look up and report measured inhibition at 1 µM (Muscarinic M5 (Homo sapiens, UniProt P08912)) for the following compound: "CC[C@@H](O)C(C[C@H](C)NC)(c1ccccc1)c1ccccc1"
Resp: 11

Req: Look up and report measured inhibition at 1 µM (Muscarinic M5 (Homo sapiens, UniProt P08912)) for the following compound: "CC[C@@H](O)C(C[C@@H](C)N)(c1ccccc1)c1ccccc1"
Resp: -1

---

Target: Serotonin 5-HT5A (Homo sapiens, UniProt P47898)
Construct: host or cells: CHO-K1
Sequence (P47898 whole entry): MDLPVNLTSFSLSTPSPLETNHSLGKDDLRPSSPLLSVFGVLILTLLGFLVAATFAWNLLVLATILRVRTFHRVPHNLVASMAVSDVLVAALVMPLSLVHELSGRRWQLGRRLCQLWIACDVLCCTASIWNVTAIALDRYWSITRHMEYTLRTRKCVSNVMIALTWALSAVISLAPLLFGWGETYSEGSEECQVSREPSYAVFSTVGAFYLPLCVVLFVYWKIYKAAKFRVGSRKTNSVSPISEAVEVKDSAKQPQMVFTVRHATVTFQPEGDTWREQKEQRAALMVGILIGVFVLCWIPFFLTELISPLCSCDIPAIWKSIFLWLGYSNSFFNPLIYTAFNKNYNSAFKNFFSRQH
Assay: Radioligand displacement binding assay, [3H]LSD, 5-HT5A
Settings: 10 μM
The threshold is inclusive: inhibition at 10 µM of exactly 40% counts as yes (1); values below receive no (0).

[
  {
    "MOLECULE": "CC[C@H](O)C(C[C@H](C)NC)(c1ccccc1)c1ccccc1",
    "GROUP": "no (0)"
  },
  {
    "MOLECULE": "CC[C@H](O)C(C[C@@H](C)N)(c1ccccc1)c1ccccc1",
    "GROUP": "no (0)"
  },
  {
    "MOLECULE": "CCC(=O)C(C[C@H](C)N(C)C)(c1ccccc1)c1ccccc1 [(S)-methadone, reference compound]",
    "GROUP": "yes (1)"
  }
]

Req: Confirm if inhibition at 10 µM reported for the molecule "CC[C@H](O)C(C[C@H](C)N)(c1ccccc1)c1ccccc1" is 40% or above.
Resp: no (0)
